test system: Saccharomyces cerevisiae; experiment: protein stability index of tFT-peptide fusion (C-terminal peptide) (PSI (0-1 scale)); higher = more stable (slower turnover); details: genetic background: cdc34-1; temperature: 37 C;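 also: PSI is a weighted mean of sequencing reads over stability bins, variants kept only with over 10 reads, mCherry proximal and sfGFP distal, peptide attached via GGGS linker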
MEASUREMENT TYPE: protein stability index
Numbers only.

> print(dat)
   polymer.sequence           measured.target  quantitative.readout
1      AFCGRRGHQFYN  Saccharomyces cerevisiae                  0.61
2      FSFLLYASLVTH  Saccharomyces cerevisiae                 0.298
3      LYSVLWFCFPLV  Saccharomyces cerevisiae                 0.586
4      RWRLWGGWWVVG  Saccharomyces cerevisiae                 0.601

# ---- query sequence ----
Provide the reported protein stability index (system: Saccharomyces cerevisiae) for GWLVGLGLVFFT
0.586

---

test system: Saccharomyces cerevisiae; experiment: protein stability index of tFT-peptide fusion (C-terminal peptide) (PSI (0-1 scale)); higher = more stable (slower turnover); conditions: genetic background: cdc34-1; temperature: 37 C
MEASUREMENT TYPE: protein stability index
One number for each entry.

Reference set (8 entries):
> print(dat)
   polymer.sequence  quantitative.readout
1      FFLVLWSSLLSP                 0.457
2      GILVVAASICYV                 0.451
3      FVRSVFFCVSVG                 0.498
4      PSLVFLPPPPPR                 0.673
5      GILILRLILCLF                 0.251
6      CKRWGVVSYVFV                 0.601
7      WLCLAVLVRFPC                 0.273
8      PFALTPPPSPRS                 0.745

Okay, here is my list. What is protein stability index for each of these?
1. LLLIGISFLIFY
2. LFLSFLLFVLAF
3. GKKKREWKKNRI
4. GCLFMQVSLFWR
5. SLRKRILCRFEY
6. VVACCVVFWVLP
7. RSIAFLLGQFLS

0.184
0.434
0.689
0.0959
0.657
0.232
0.668

Okay, here is my list. What is protein stability index for each of these?
1. SLCSRLVVVAWF
2. VFKLGWVLCVLL
3. FLFSVVFFFFSL

1: 0.531; 2: 0.286; 3: 0.368

Okay, here is my list. What is protein stability index for each of these?
1. TSLPPSPPPSPT
2. VFFGLYLVTFTS

1: 0.682; 2: 0.219

Okay, here is my list. What is protein stability index for each of these?
1. GFGRRGQFGGTG
2. LDLSSVFILYFN
3. CRLCVFGVWFCG
4. WLFAILPSRLIA

1: 0.86; 2: 0.599; 3: 0.532; 4: 0.284

---

system: Saccharomyces cerevisiae; assay: protein stability index of tFT-peptide fusion (C-terminal peptide) (PSI (0-1 scale)); higher = more stable (slower turnover); details: genetic background: wild type; temperature: 30 C
protein stability index of 0.7 or higher: Satisfied. Under 0.7: Not satisfied.

# count of solved cases: 4
> print(dat)
   polymer.sequence           measured.target          group
1      RSGPRMNVNRTL  Saccharomyces cerevisiae  Not satisfied
2      VHHTPFFSAPHV  Saccharomyces cerevisiae  Not satisfied
3      VLVRRVFRRRSR  Saccharomyces cerevisiae      Satisfied
4      KNVKETERKVTS  Saccharomyces cerevisiae  Not satisfied

Check the entry SSRPPPVLTPAR : does protein stability index equal or exceed 0.7?
Satisfied
